# target_desc: T1, PUF4 RNA-binding domain (Saccharomyces cerevisiae, UniProt P25339 537-888)
# T1 sequence: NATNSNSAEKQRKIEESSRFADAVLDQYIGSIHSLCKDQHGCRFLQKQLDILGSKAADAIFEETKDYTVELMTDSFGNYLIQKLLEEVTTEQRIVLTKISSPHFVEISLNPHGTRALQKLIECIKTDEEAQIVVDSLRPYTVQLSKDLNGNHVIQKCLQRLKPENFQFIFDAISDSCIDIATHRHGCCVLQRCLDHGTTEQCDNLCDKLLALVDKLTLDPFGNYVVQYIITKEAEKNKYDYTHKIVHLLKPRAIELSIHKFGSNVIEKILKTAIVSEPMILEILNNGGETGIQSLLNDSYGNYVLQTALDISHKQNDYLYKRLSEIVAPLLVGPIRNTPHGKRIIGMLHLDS
# experimental_protocol: Mg; RNA-MaP; 20 mM Na-HEPES pH 7.4, 30 mM KOAc, 0.75 mM MgCl2, 0.1% Tween-20, 5% glycerol, 0.1 mg/mL BSA, 2 mM DTT; 25 C; 0.0125-409.6 nM protein
# test_context: tags: N-His6-TEV cleaved; C-SNAP kept, Cy3B-labelled; label: tethered on chip by stalled RNA polymerase
Could you please report measured pKd for the items listed next?
By convention, pKd is the negative base-10 log of a molar concentration.

Q) Supply measured pKd of UCUCUUUGUACUGUUAUCUCUU (ssRNA) [Ib_S1_P5E.1_K5.1_C5.1_H5.1_A5.1_[T5C]_[A7G]_F5.1_T5.1] in your reply.
A) 8.10

Q) Give the value of pKd reported for the following: Id_ii_S2_P4E.4_K4.3_C4.2_H4.3_A4.1_F4.1_T4.2_[G10T] (ssRNA) RNA: UUUGAUUAAUAUGAUAUCGUUCUUUCUCUACACUAUUAUUUUCUUUCUCGAUAUCAUAUUAAUCUUU
A) 6.28

Q) Kindly indicate its recorded pKd. Item: Ie_S2_P5E.1_K5.1_C5.1_H5.1_[+2TCC]_A5.1_F5.1_T5.1 (ssRNA) RNA: UUUGAUUAAUAUGAUAUCGUUCUUUCUUGUCCUAUUAUUAUUCUUUCUCGAUAUCAUAUUAAUCUUU
A) 7.65

Q) Quick one: give measured pKd for UCUCUUUGUACGGUUCUCUU (ssRNA) [Ic_S1_P3E.1_K3.1_C3.1_H3.1_A3.1_[T5C]_[A6G]_F3.1_[T7G]_[A8T]_T3.1]
A) 6.41

Q) Fill in pKd for record UCUCUUUGUAUAUCUCUCUAUCUCUU (ssRNA) [Ie_S1_P4E.1_K4.1_C4.1_H4.1_A4.1_[+7CTCTC]_F4.1_T4.1]
A) 7.80

Q) Give the reported value of pKd for this record: Id_ii_S2_P5E.2_K5.1_C5.2_H5.1_A5.1_F5.1_T5.2_[T11A]_[A12T] (ssRNA) RNA: UUUGAUUAAUAUGAUAUCGUUCUUUCUCUUGUAUUAUUAAUUUCUUUCUCGAUAUCAUAUUAAUCUUU
A) 8.75

Q) For the binder Ic_S2_P4E.1_K4.1_C4.1_H4.1_A4.1_[A6G]_F4.1_[T8C]_[A9T]_T4.1 (ssRNA) RNA: UUUGAUUAAUAUGAUAUCGUUCUUUCUUGUAUGUCUUUCUUUCUCGAUAUCAUAUUAAUCUUU , give its measured pKd value.
A) 7.24

Q) Look up and report measured pKd for this entry: Id_ii_S2_P3E.2_K3.1_C3.2_[C-2T]_[T-1C]_H3.1_A3.1_F3.1_T3.2_[T9C]_[A10C] (ssRNA) RNA: UUUGAUUAAUAUGAUAUCGUUCUUUCUUCUGUAUAUACCUUCUUUCUCGAUAUCAUAUUAAUCUUU
A) 8.47

Q) Please list pKd recorded for the binder UCUCUUUAUAUAUUAUUACUUCUCUU (ssRNA) [Id_ii_S1_P5E.3_K5.2_C5.2_[C-2T]_[T-1A]_H5.2_A5.1_F5.1_T5.2_[T11C]_[A12T]]
A) 7.88

Q) Consider the binder UCUCUUUGUGUUAUUAUCUCUU (ssRNA) [Ia_S1_P5E.1_K5.1_C5.1_H5.1_[A4G]_A5.1_F5.1_T5.1] and give its recorded pKd.
A) 7.51
